Assay: Clearance in CD1 mouse at 5 mg/kg, iv administered as single dose
Format: ADME, organism-based
Details: in vivo
ASSAY METRIC: clearance (mL/min/kg)

> print(dat)
                                   compound  assay.metric  observed
1  Cl.N[C@@H]1C[C@H]1c1ccc(NC(=O)c2cccc(N3CCOC3=O)c2)cc1 (racemic)     clearance      49.7

====

Target: Amine oxidase [flavin-containing] B (Homo sapiens, UniProt P27338)
Sequence (P27338 whole entry): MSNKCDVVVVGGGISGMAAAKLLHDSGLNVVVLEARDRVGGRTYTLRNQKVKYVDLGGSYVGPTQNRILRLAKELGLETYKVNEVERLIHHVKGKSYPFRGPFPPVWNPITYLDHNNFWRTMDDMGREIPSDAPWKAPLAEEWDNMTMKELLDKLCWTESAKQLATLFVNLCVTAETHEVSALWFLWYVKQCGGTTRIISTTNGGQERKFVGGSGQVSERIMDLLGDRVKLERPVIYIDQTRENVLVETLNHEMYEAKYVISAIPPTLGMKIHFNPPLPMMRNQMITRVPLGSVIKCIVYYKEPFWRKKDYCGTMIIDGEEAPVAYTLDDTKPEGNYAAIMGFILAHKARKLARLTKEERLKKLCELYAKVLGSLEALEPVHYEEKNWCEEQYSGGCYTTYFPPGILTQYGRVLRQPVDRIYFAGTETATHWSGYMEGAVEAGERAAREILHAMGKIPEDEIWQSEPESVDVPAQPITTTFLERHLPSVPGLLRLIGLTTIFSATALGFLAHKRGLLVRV
Test: Inhibition of human recombinant MAOB expressed in Pichia pastoris preincubated for 15 mins measured after 30 mins by bioluminescent-coupled assay
ASSAY METRIC: log10 of IC50 (log10 of the value in µM)

> print(dat)
                                   compound   assay.metric  observed
1  N[C@@H]1C[C@H]1c1ccc(NC(=O)c2ccc(N3CCOC3=O)cc2)cc1 (racemic)  log10 of IC50      0.20
2  N[C@@H]1C[C@H]1c1ccc(NC(=O)c2ccc(NC(=O)OCc3ccccc3)c(N3CCOCC3)c2)cc1 (relative stereo)  log10 of IC50      1.44
3  N[C@@H]1C[C@H]1c1ccc(NC(=O)c2ccc(-c3ccoc3)cc2)cc1 (racemic)  log10 of IC50     -1.06
4  Cl.N[C@@H]1C[C@H]1c1ccc(NC(=O)c2cccc(N3CCOC3=O)c2)cc1 (racemic)  log10 of IC50      1.90
5  N[C@@H]1C[C@H]1c1ccc(NC(=O)c2ccc(N3CCOCC3)c(NC(=O)OCc3ccccc3)c2)cc1 (relative stereo)  log10 of IC50      1.80
6  N[C@@H]1C[C@H]1c1ccc(NC(=O)c2ccc(N3CCOCC3)cc2)cc1 (racemic)  log10 of IC50     -0.22
